// apparent KD of MS2 coat protein lookup, one value per entry
# Tested on: MS2 coat protein
# method-notes: apparent KD of MS2 coat protein; higher = weaker reporter binding
# test-conditions: Eterna round: R107; input ligand: none
Quick reminder: number only, in nM, skip the unit.

GGAUGAAACUGAAGGAGCGAGAUCACAAGAUUGGGUCUAACAUGAGGAUCACCCAUGUAAUCUCAGGUAGGUCGCAGUGUCCCUU [Exclusion Arginine B GF 12] ... 26.6
AUACAUGAGGAUCACCCAUGUCAUUCAGAAGGAGCGUCAUUUUAGACAGGUAGGUCGCUGAUAUUAUCUUUAUACUUUAUGUUUA [JR_ExcArginiA_Sub023] ... 18.3
ACAUGAGGAUCACCCAUGUGAAGCAGGGUACGAGGACCGGUACGGCCGCCACUCGAGGAUUAUACCGAGUGAAUGGCAACGAUGU [whbob_Ex_trypto A_2s18] ... 14.1

Below: the item to evaluate.
Short answer for GCUUGGGUGGCACGGCCCUGGCGGUGCGAUACCAGCACGGUAACGUGCCCUUGGCAGCGCACAUGAGGAUCACCCAUGUGGUGCG [#1 Exclusion - Theophylline A Attempt #24 (HarryS)] : apparent KD of MS2 coat protein was 15.6
